measured-target: hAR (human androgen receptor) (Homo sapiens)
Construct: made in house; host or cells: baculovirus/Sf9 insect cells (extract)
assay-remarks: Competitive binding analysis on hAR extracts with 3H-DHT tracer
conditions: baculovirus/Sf9 hAR extract, 1 nM 3H-DHT, one hour at 4° C; mean of multiple tests; read-out: AR Binding IC50
For each entry below, report its pIC50 value.
Give bare numbers, as −log10 of the molar value.

Consider the reported pIC50 for these molecules:
molecule	measured-target	pIC50
CC(C)(CCOc1ccc(C#N)c(C(F)(F)F)c1)Oc1ccc(C#N)c(C(F)(F)F)c1 [Example 18]	hAR (human androgen receptor) (Homo sapiens)	6.39
CCCC(Oc1ccc(C#N)c(C(F)(F)F)c1)C(CC)COc1ccc(C#N)c(C(F)(F)F)c1 (stereo not shown) [Example 19]	hAR (human androgen receptor) (Homo sapiens)	6.67
CCCC(CCCOc1ccc(C#N)c(C(F)(F)F)c1)Oc1ccc(C#N)c(C(F)(F)F)c1 (stereo not shown) [Example 21]	hAR (human androgen receptor) (Homo sapiens)	6.63
CC(CCCCOc1ccc(C#N)c(C(F)(F)F)c1)Oc1ccc(C#N)c(C(F)(F)F)c1 (stereo not shown) [Example 25]	hAR (human androgen receptor) (Homo sapiens)	6.80
CC(CCC(C)Oc1ccc(C#N)c(C(F)(F)F)c1)Oc1ccc(C#N)c(C(F)(F)F)c1 (stereo in doubt) [Example 23]	hAR (human androgen receptor) (Homo sapiens)	6.74

Please state pIC50 for every molecule in the list that follows.
1. N#Cc1ccc(OCCCOc2ccc(C#N)c(C(F)(F)F)c2)cc1C(F)(F)F [Example 11]
2. CC(CCOc1ccc(C#N)c(C(F)(F)F)c1)CCOc1ccc(C#N)c(C(F)(F)F)c1 [Example 26]
3. CCCC(COc1ccc(C#N)c(C(F)(F)F)c1)Oc1ccc(C#N)c(C(F)(F)F)c1 (stereo not shown) [Example 4]

Result:
[6.78, 6.81, 6.20]

----------
For each entry below, report its log10 of IC50 value.
measured-target: hAR (human androgen receptor) (Homo sapiens)
Construct: made in house; host or cells: baculovirus/Sf9 insect cells (extract)
Sequence (P10275 1-920): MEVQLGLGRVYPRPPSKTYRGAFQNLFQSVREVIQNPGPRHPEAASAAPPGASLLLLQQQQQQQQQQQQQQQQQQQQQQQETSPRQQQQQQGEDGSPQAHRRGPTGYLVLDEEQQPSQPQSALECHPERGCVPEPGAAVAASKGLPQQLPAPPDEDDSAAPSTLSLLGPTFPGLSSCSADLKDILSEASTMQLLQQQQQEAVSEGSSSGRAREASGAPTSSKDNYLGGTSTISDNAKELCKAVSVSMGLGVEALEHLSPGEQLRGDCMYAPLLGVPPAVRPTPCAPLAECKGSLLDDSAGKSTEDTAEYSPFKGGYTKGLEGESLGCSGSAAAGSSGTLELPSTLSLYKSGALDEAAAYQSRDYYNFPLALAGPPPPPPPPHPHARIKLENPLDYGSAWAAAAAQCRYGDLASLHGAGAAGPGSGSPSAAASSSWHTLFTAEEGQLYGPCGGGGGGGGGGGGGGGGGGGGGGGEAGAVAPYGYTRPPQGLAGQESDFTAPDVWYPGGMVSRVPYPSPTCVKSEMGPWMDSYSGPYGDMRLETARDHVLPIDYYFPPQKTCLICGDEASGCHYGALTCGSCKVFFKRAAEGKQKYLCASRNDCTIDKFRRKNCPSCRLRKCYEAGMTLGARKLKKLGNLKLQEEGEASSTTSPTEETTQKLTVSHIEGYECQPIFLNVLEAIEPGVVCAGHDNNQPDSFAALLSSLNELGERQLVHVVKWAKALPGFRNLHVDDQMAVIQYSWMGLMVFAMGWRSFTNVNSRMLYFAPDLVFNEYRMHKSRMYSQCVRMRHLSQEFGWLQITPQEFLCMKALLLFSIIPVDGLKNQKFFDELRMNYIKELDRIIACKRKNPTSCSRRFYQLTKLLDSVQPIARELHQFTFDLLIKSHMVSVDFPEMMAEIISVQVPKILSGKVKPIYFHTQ
assay-remarks: Competitive binding analysis on hAR extracts with 3H-DHT tracer
Values reflect log10 of reported IC50 (nM).

compound	measured-target	attribute-measured	observed-measurement
C=CCC(CCOc1ccc(C#N)c(C(F)(F)F)c1)Oc1ccc(C#N)c(C(F)(F)F)c1 (centres unmarked)	hAR (human androgen receptor) (Homo sapiens)	log10 of IC50	1.67
COCC(COc1ccc(C#N)c(C(F)(F)F)c1)Oc1ccc(C#N)c(C(F)(F)F)c1 (centres unmarked)	hAR (human androgen receptor) (Homo sapiens)	log10 of IC50	1.75
C[C@@H](Oc1ccc(C#N)c(C(F)(F)F)c1)[C@@H](C)Oc1ccc(C#N)c(C(F)(F)F)c1	hAR (human androgen receptor) (Homo sapiens)	log10 of IC50	1.53

Please state log10 of IC50 for every compound in the list that follows.
1. COC[C@@H](COc1ccccc1)Oc1ccc(C#N)c(C(F)(F)F)c1
2. CC(CCOc1ccc(C#N)c(C(F)(F)F)c1)Oc1ccc(C#N)c(C(F)(F)F)c1 (centres unmarked)
3. N#Cc1ccc(O[C@H](CO)COc2ccccc2)cc1C(F)(F)F
4. COCC(COc1ccccc1)Oc1ccc(C#N)c(C(F)(F)F)c1 (centres unmarked)
5. C[C@@H](C[C@H](C)Oc1ccc(C#N)c(C(F)(F)F)c1)Oc1ccc(C#N)c(C(F)(F)F)c1 (stereo in doubt)

Result:
[1.66, 1.00, 1.64, 0.70, 1.23]

Ref: patent US7473711B2
